Examples of sequences with documented CDK4/6 Reactivity follow.
- Test system: CDK4 and CDK6
- TEST SUMMARY: CDK reactivity test 2 (Test Example 2), CDK4/6 reactivity
- Assay type: biochemical
- CONDITION PARAMETERS: [(V2/V1)+(V4/V3)]/2; relative value when Comparative Polypeptide 2 is set as 1
No end group written: not given here. *: point of attachment. Biotin = O=C1N[C@H]2[C@H](CS[C@H]2CCCCC(=O)*)N1; Ahx = NCCCCCC(=O)O
ENDPOINT: CDK4/6 Reactivity

CHAIN	REPORTED MEASUREMENT
GMPWSYNPWWRGGGG ({Biotin-Ahx}-GMPWSYNPWWRGGGG) [Polypeptide 17, mutant of Polypeptide 1, N-terminal biotin via aminohexane linker]	2
GMPWSPAPWWRGGGG ({Biotin-Ahx}-GMPWSPAPWWRGGGG) [Polypeptide 7, mutant of Polypeptide 1, N-terminal biotin via aminohexane linker]	8
GMPFSPNPWWRGGGG ({Biotin-Ahx}-GMPFSPNPWWRGGGG) [Polypeptide 13, mutant of Polypeptide 1, N-terminal biotin via aminohexane linker]	5
GMAWSPNPWWRGGGG ({Biotin-Ahx}-GMAWSPNPWWRGGGG) [Polypeptide 4, mutant of Polypeptide 1, N-terminal biotin via aminohexane linker]	5
GMPWSPNPWWRAGGG ({Biotin-Ahx}-GMPWSPNPWWRAGGG) [Polypeptide 12, mutant of Polypeptide 1, N-terminal biotin via aminohexane linker]	6
GAPWSPNPWWRGGGG ({Biotin-Ahx}-GAPWSPNPWWRGGGG) [Polypeptide 3, mutant of Polypeptide 1, N-terminal biotin via aminohexane linker]	33
AMPWSPAPAARAGGG ({Biotin-Ahx}-AMPWSPAPAARAGGG) [Polypeptide F, mutant of Polypeptide 1, N-terminal biotin via aminohexane linker]	7
GMPWSPNPWARGGGG ({Biotin-Ahx}-GMPWSPNPWARGGGG) [Polypeptide 10, mutant of Polypeptide 1, N-terminal biotin via aminohexane linker]	15
GMPWSPNPWWKGGGG ({Biotin-Ahx}-GMPWSPNPWWKGGGG) [Polypeptide B, mutant of Polypeptide 1, N-terminal biotin via aminohexane linker]	5
GMFWSPNPWWRGGGG ({Biotin-Ahx}-GMFWSPNPWWRGGGG) [Polypeptide D, mutant of Polypeptide 1, N-terminal biotin via aminohexane linker]	5
GMPWSFNPWWRGGGG ({Biotin-Ahx}-GMPWSFNPWWRGGGG) [Polypeptide 16, mutant of Polypeptide 1, N-terminal biotin via aminohexane linker]	2
GMWWSPNPWWRGGGG ({Biotin-Ahx}-GMWWSPNPWWRGGGG) [Polypeptide C, mutant of Polypeptide 1, N-terminal biotin via aminohexane linker]	5
GMPWSPNAWWRGGGG ({Biotin-Ahx}-GMPWSPNAWWRGGGG) [Polypeptide 8, mutant of Polypeptide 1, N-terminal biotin via aminohexane linker]	7
